Assignment: determine reported growth inhibition for the given molecules.
- PROTOCOL TEXT: NCI Yeast Anticancer Drug Screen. Data for the rad50 strain (AID 155);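 also: 0% = growth of vehicle-only cultures of the same strain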
- CONDITION: S. cerevisiae rad50 strain growth inhibition; at 50.0 µM (retest, dose inferred, filed as 5.0); active compounds read high
- Description: Growth inhibition of yeast strains with defined genetic alterations is measured as a screen for potential anti-cancer activity. Selected strains with alterations in DNA damage repair or cell cycle control were exposed to compounds and growth inhibition was measured relative to vehicle treated controls. The strain used in this assay is rad50
The panel holds about 79,000 compounds, 15% with a hit somewhere; the sample as a whole holds those more often.
Only the number, expressed in %, is required.

q: Please give the measured growth inhibition for this molecule: "CN(C)c1ccc(C(C#N)=C(C#N)C#N)cc1"
a: 70

q: Query (molecule): "O=[N+]([O-])c1ccc2nc3ccccc3cc2c1" ; field requested: growth inhibition
a: 92

q: Please give the measured growth inhibition for this molecule: CC(/C=C/c1ccc2c(c1)OCO2)[N+](=O)[O-] (stereo not given)
a: 97

q: Request the reported growth inhibition associated with "CC(=O)Oc1ccc2c(c1)Cc1cc(N=C3C=CC(=O)O3)ccc1-2"
a: 99

q: Which measured growth inhibition value corresponds to "O=C1C=CC(=O)N1c1ccc2c(c1)Cc1cc(NC(=O)C(F)(F)F)ccc1-2" ?
a: 91

q: Recorded growth inhibition for COc1cc(C2C3=C(COC3=O)Oc3cc4c(cc32)OCO4)ccc1O (stereo not given) , please?
a: 95

q: Look at this molecule and give its reported growth inhibition. "CCOc1ccc2c(c1)c(CC(=O)O)cn2C"
a: 94

q: Item "NC1=NS(=O)(=O)N=C(N)C1=Cc1ccc([N+](=O)[O-])o1" has what recorded growth inhibition?
a: 77

q: Any idea what its growth inhibition is? The molecule is O=C(O)C1CCCCC1c1c2ccc(=O)c(O)c-2oc2c(O)c(O)ccc12 (stereo not given)
a: 77

q: Value lookup for growth inhibition; key = CC1OCC2OC(C)OC(C3C4=C(CC(C)(C)CC4=O)OC4=C3C(=O)CC(C)(C)C4)C2O1 (stereo not given)
a: 57

q: Dear colleague, I am looking for the recorded growth inhibition of the following molecule: FC(F)(F)c1cc(NC(=S)N2c3ccccc3-n3cccc3C2c2cccnc2)cc(C(F)(F)F)c1 (stereo not given)
a: 57

q: For the molecule shown here, "C/C(=N\NC(=S)N1CCCCC1)c1cccc(C)n1" , give the reported growth inhibition.
a: 100

q: Query (molecule): "CC(=O)[O][Bi]([c]1ccccc1)[c]1ccccc1" ; field requested: growth inhibition
a: 94

q: Would you kindly share the measured growth inhibition for "O=C1C(Nc2ccccc2)=C(Oc2ccccc2)C(=O)c2ccccc21" ?
a: 26

q: State the recorded growth inhibition for this entry: "CCN(CC)CCC(=O)c1ccc(Oc2ccc(F)cc2)cc1"
a: 82

q: Using the record for "OC(c1ccc(F)cc1)(c1ccc(F)cc1)C1CC1" , report its growth inhibition.
a: 99

q: Fill in: growth inhibition of O=C1OC(CCl)CN1/N=C/c1ccc([N+](=O)[O-])o1 (stereo not given) is ___
a: 78

q: Item "O=[N+]([O-])c1cc(CCl)ccc1CCl" has what recorded growth inhibition?
a: 98

q: Give its growth inhibition value. Item: Clc1ccc(SC(/C=C/NNC2=NC(c3ccccc3)C(c3ccccc3)=NN2)c2ccccc2)cc1 (stereo not given)
a: 48

q: Need growth inhibition of "c1ccc2c(c1)sc1cc3ccncc3cc12" , thanks.
a: 94

q: Any idea what its growth inhibition is? The molecule is "COc1cc2c3c(cccc3c1)C(=O)N(CCN(C)C)C2=O"
a: 77

q: Requested field: growth inhibition. Item: "Cc1ccc(-c2ccc(Nc3c4ccccc4nc4ccccc34)cc2)cn1"
a: 97

q: Can you share its growth inhibition? I mean this molecule: "CCN(CC)C(C)(C)C(=O)/C=C/c1ccccc1"
a: 80

q: GET /values?readout=growth inhibition&item= "O=C(NCCCNCCCNC(=O)c1cc(-c2ccccc2)nc2ccccc12)c1cc(-c2ccccc2)nc2ccccc12"
a: 54

q: Could you share which growth inhibition value was measured for "CC(=O)Oc1cc(-c2cc(OC(C)=O)c(OC(C)=O)c3ccccc23)c2ccccc2c1OC(C)=O" ?
a: 82

q: Would you kindly share the measured growth inhibition for "O=C1C=CC(=Nc2ccc3c(c2)Cc2cc(NC(=O)C(F)(F)F)ccc2-3)O1" ?
a: 96

q: Entry C(=C\c1ccccc1)/COc1ccccc1C(N1CCOCC1)n1nc2ccccc2n1 (stereo not given) has what growth inhibition?
a: 98

q: Record request: growth inhibition value, item C=CC(C)(O)CCC1C(=C)C(O)CC2C(C)(C)CCCC12C (stereo not given)
a: 43

q: Entry under review: "O=C(NC(Nc1ccc(F)c(Cl)c1)(C(F)(F)F)C(F)(F)F)C(C(F)(F)F)C(F)(F)F" . Reported growth inhibition?
a: 96

q: Would you mind telling me what growth inhibition value was observed for c1ccc2c(c1)-c1nc3ccccc3cc1C2N1CCOCC1 (stereo not given) ?
a: 55

q: Look up growth inhibition for this molecule: "COC(=O)c1cc(-c2ccc(C)cc2)[nH]c(=O)c1C#N"
a: 9

q: Name the recorded growth inhibition for N#CC(C(=O)Nc1ccccc1)C1=C(Cl)C(=O)c2ccccc2C1=O (stereo not given) .
a: 98

q: // query growth inhibition value for entry "O=[N+]([O-])c1cc2no[n+]([O-])c2cc1N1CCCCC1"
a: 74

q: Reported growth inhibition, molecule CCC[CH2][Ge]([CH2]CCC)([CH2]CCC)[O]C(=O)C(OC)c1ccccc1 (stereo not given) : ____
a: 60

q: So what does the record say about growth inhibition for "c1ccc(-c2nc3cccnc3s2)cc1" ?
a: 56

q: Dear colleague, I am looking for the recorded growth inhibition of the following molecule: "O=C1Nc2ccccc2/C1=C/COc1ccccc1"
a: 99

q: For the molecule shown here, "Oc1cccc2c(Cl)ccnc12" , give the reported growth inhibition.
a: 99

q: What does the data say about its growth inhibition? Entry: "c1ccc2c(c1)C(=NCCCN1CCCCCC1)c1cccn1-2"
a: -6

q: Data request, read-out growth inhibition, for CCOP(=O)(OCC)C(Cc1ccccc1)N=C(c1ccccc1)c1ccccc1 (stereo not given)
a: 7

q: Dear colleague, I am looking for the recorded growth inhibition of the following molecule: "CCC(=O)OCCn1c2nc(=O)[nH]c(=O)c-2nc2cc(C)c(C)cc21"
a: 10

q: What growth inhibition value was documented for this molecule, "Cc1ccc2[nH]c3c(C)c4cc[n+](C)cc4c(C)c3c2c1" ?
a: 91

q: Tell me the measured growth inhibition of "Cc1ccc(CCC2=CCCc3c2ccc2ccccc32)cc1" , please.
a: -25

q: What measured growth inhibition goes with "CCCCCCCCNC(=O)C1=C(C)NC(C)=C(C(=O)NCCCCCCCC)C1" ?
a: 6

q: What value of growth inhibition has been recorded for this entry: "O=[N+]([O-])C(=C(Sc1ccccc1)Sc1ccccc1)C(Cl)=C(Cl)Cl"
a: 53

q: Can you look up the measured growth inhibition of "CSC(=S)Nc1cccc(C)n1" for me?
a: 99

Cited source: PubChem BioAssay (NCI)
